# Test system: HOP-92 NSCLC
# Test summary: NCI-60 one-dose screen, 48 h
# Condition set: 10 µM
About 83,000 compounds went through this panel and 20% of them were active in at least one assay; those are over-represented in the sample as a whole. Activity calls are given as the source filed them. How the source made its calls: active means growth percent below 10; inactive means the rest.
Please state which outcome applies, choosing from active, inactive

These recorded examples may help you get a feel for the data.
| Entry smiles | Discrete label |
| --- | --- |
| COc1cc(-c2nn(-c3cccc(NC(=O)NCCNS(=O)(=O)c4ccc(Cl)cc4)c3)cc2-c2ccncc2)ccc1Cl | active |
| C(=N\Nc1ncnc2sc3c(c12)CCNC3)/c1cccc2ccccc12 | inactive |
| CCOC(=O)c1cc(C(=O)c2cc(OC)cc(OC)c2)n2nc(C)ccc12 | inactive |
| CNS(=O)(=O)Oc1ccc(-c2sc3cc(OS(=O)(=O)NC)ccc3c2C(=O)c2ccc(OCCN3CCCCC3)cc2)cc1 | inactive |
| O=C(N/N=C/c1ccc([N+](=O)[O-])cc1)c1ccccc1Nc1cccc(C(F)(F)F)c1 | inactive |

[Q] What was the test verdict on Cc1cc(=O)n2nnc3cc(Cl)c(Cl)cc3n12 ?
[A] inactive

[Q] What was the test verdict on Cc1nn(-c2ccc(-c3ccc(OC(F)(F)F)cc3)cc2)c2nc(Cc3ccccc3)nc(N)c12 ?
[A] inactive

[Q] What was the test verdict on COc1cc(C(=O)n2nc(-c3cc(OC)c(OC)c(OC)c3)nc2N)cc(OC)c1OC ?
[A] inactive

[Q] What was the test verdict on NS(=O)(=O)c1ccc(N2N=C(c3ccccc3)CCC2=O)cc1 ?
[A] inactive

[Q] What was the test verdict on CCCCc1oc2ccccc2c1C(=O)c1cc(I)c(OCCN(CC)CC)c(I)c1 ?
[A] active

---

# Test system: A498 renal
# Test summary: NCI-60 one-dose screen, 48 h
# Condition set: 10 µM
The panel holds about 83,000 compounds, 20% with a hit somewhere; the sample as a whole holds those more often. Activity calls are given as the source filed them. The calls were made as follows: active = growth percent below 10; inactive = the rest.
Please state which outcome applies, choosing from 1 = active, 0 = inactive

| Molecule | Discrete label |
| --- | --- |
| O=S(=O)(Oc1ccc(-c2ccc3sccc3c2)cc1)c1ccccc1 | 0 |

[Q] What was the test verdict on CCCCCC(=O)O[C@]1(C(C)=O)CCC2C3CCC4=CC(=O)CC[C@]4(C)C3CC[C@@]21C (stereo partly specified) ?
[A] 0

[Q] What was the test verdict on O=C1/C=C/[C@@H](O)[C@@H]2C[C@@H](O)C[C@H]2/C=C/CCC[C@H](CCc2ccc(NC(=S)Nc3ccc4c(c3)C(=O)OC43c4ccc(O)cc4Oc4cc(O)ccc43)cc2)O1 ?
[A] 1

[Q] What was the test verdict on Cc1ccc(S(=O)(=O)N(C)CCCCCC(=O)O)cc1 ?
[A] 0

[Q] What was the test verdict on Cc1cc(CSc2ccccc2C(=O)N2CC=C(c3ccccc3)CC2)on1 ?
[A] 0

[Q] What was the test verdict on CCOC(=O)CN(c1sc(C)c(C)c1C(=O)OCC)S(=O)(=O)c1ccc(C)cc1 ?
[A] 0

---

Quick reference: growth of the listed items.
# Tested on: NCI/ADR-RES ovarian
# Test summary: NCI-60 one-dose screen, 48 h (100 = growth as untreated, 0 = no growth, -100 = all killed)
# Condition set: 10 µM
# Protocol: Growth inhibition of the NCI/ADR-RES human […] tumor cell line is measured as a screen for anti-cancer activity. Cells are grown in 96 well plates and exposed to the test compound for 48 hours. Compounds are tested at a single concentration, which is 10^-5 M for most compounds. The reported endpoint is percent growth (GI% or GIPRCNT), where numbers from 0 - 100% represent growth inhibition, and numbers from -100% - 0 represent cell death. For example, a value of 40 represents 60% growth inhibition. […]
This is part of a sample that, as a whole, favours compounds with a hit. Of some 83,000 tested, about 20% had one in any assay.
Write the value in % as a bare number.

| Compound | Unit of measurement | growth |
| --- | --- | --- |
| COc1ccc(C(=O)c2ccccc2CN2C(=O)c3ccccc3C2=O)cc1 | % | 95.5 |
| COc1ccc(C2CC(c3cccs3)=NN2c2ccc(S(N)(=O)=O)cc2)cc1 (centres undefined) | % | 77.4 |
| O=C1CCn2c1c(O)c1ccccc1c2=O | % | 103 |

Here's the next entry for you.
Looking up COc1cc(NC(=O)C2=C(N3CCOCC3)/C(=C/c3ccc(Cl)cc3)CC2)cc(OC)c1OC , I see its growth listed as 72.5

---

# System: RXF 393 renal
# Test summary: NCI-60 one-dose screen, 48 h (100 = growth as untreated, 0 = no growth, -100 = all killed)
# Condition set: 10 µM
This is part of a sample that, as a whole, favours compounds with a hit. Of some 83,000 tested, about 20% had one in any assay.
Quick reference: growth of the listed items.
Write the value in % as a bare number.

| Molecule | Unit of measurement | growth |
| --- | --- | --- |
| Cc1ccc(NC(=S)NNC(=S)Nc2ccc(C)cc2)cc1 | % | 91.5 |
| O=C(CSc1nnc(-c2ccc(Cl)cc2)o1)Nc1ccc(C(=O)/C=C/c2ccc(Cl)cc2)cc1 | % | 99.1 |
| O=C1c2c(c(=O)[nH]c3ccccc23)CCN1Cc1ccccc1 | % | 111 |
| Nc1ncc(-c2cnn(C3CCNCC3)c2)cc1-c1nc2ccccc2o1 | % | -29.5 |
| COc1ccc2c(c1)C(=O)/C(=C/c1ccc([N+](=O)[O-])o1)O2 | % | -78.3 |

Looking up COC(=O)c1c[nH]c2cc(OC(C)C)c(OC(C)C)cc2c1=O , I see its growth listed as 94.7

Looking up O=S(=O)(Oc1ccc(-c2ccc3sccc3c2)cc1)c1ccccc1 , I see its growth listed as 97.1

Looking up CN(C)c1ncnc2c1nnn2C1OC(CO)C(O)C1O (stereo not drawn) , I see its growth listed as -2.59

---

# System: U251 CNS
# Test summary: NCI-60 one-dose screen, 48 h (100 = growth as untreated, 0 = no growth, -100 = all killed)
# Condition set: 10 µM
About 83,000 compounds went through this panel and 20% of them were active in at least one assay; those are over-represented in the sample as a whole. Calls of active or inactive are those of the source. The calls were made as follows: active = growth percent below 10; inactive = the rest.
Metric name: growth

The examples below pair each entry with its known result.
| Molecule | Target or system | growth |
| --- | --- | --- |
| Oc1ccc(/C=N/N=C2c3ccccc3-c3ccccc32)c(O)c1 | U251 CNS | 78.7% (inactive) |
| COc1cc2c(Nc3ccc(-c4ccc(N)cc4)cc3)ncnc2c(OC)c1OC | U251 CNS | 42.6% (inactive) |
| CCNc1nc(C(F)(F)F)nc2c1sc(=S)n2-c1ccccc1 | U251 CNS | 93.3% (inactive) |
| CN(C)CCCSc1ccccc1NC1=C(Cl)C(=O)C(Nc2ccccc2SCCCN(C)C)=C(Cl)C1=O | U251 CNS | 23% (inactive) |

Looking up Nc1nc(N)c(N)c(Nc2ccc(CCO)cc2)n1 , I see its growth listed as 96.6% (inactive)

Looking up CC(=O)[C@@]12O[C@](C)(c3ccccc3)O[C@@H]1CC1C3CCC4=CC(=O)CC[C@]4(C)C3CC[C@@]12C (some centres not stated) , I see its growth listed as 72.3% (inactive)

---

# System: MDA-MB-231 breast
# Test summary: NCI-60 one-dose screen, 48 h
# Condition set: 10 µM
This is part of a sample that, as a whole, favours compounds with a hit. Of some 83,000 tested, about 20% had one in any assay. Activity calls are given as the source filed them. The calls were made as follows: active = growth percent below 10; inactive = the rest.
Please state which outcome applies, choosing from active, inactive

These recorded examples may help you get a feel for the data.
| Compound | Discrete label |
| --- | --- |
| COc1ccc(C(=O)c2cc3c(OC)c(OC)c(OC)cc3[nH]2)cc1 | inactive |
| O=C(Nc1ccc2c(O)cc(S(=O)(=O)O)cc2c1)c1ccc([N+](=O)[O-])cc1 | inactive |
| COc1ccccc1/C=N\N/C(N)=N\N=C\c1ccccc1OC | inactive |
| COc1cc(-c2csc(NC(=O)Nc3cc(C(F)(F)F)cc(C(F)(F)F)c3)n2)cc(OC)c1OC | inactive |
| C[N+]1(CCCCC[N+]2(C)CCCC2)CCCC1 | inactive |

[Q] What was the test verdict on CCN(CC)CCN1c2nc3ccccc3cc2Sc2cc3ccccc3nc21 ?
[A] active

[Q] What was the test verdict on Clc1ccc(Cc2ccncc2)cc1 ?
[A] inactive

[Q] What was the test verdict on Nc1nc(-c2cccnc2)nc2c1sc(=S)n2-c1ccccc1 ?
[A] inactive

[Q] What was the test verdict on COc1ccc(-c2onc(N)c2-c2cc(OC)c3c(c2)OCO3)cc1 ?
[A] inactive

[Q] What was the test verdict on COc1ccc(C(=O)N2C=Cc3ccccc3C2C#N)cc1 (stereo not given) ?
[A] inactive

[Q] What was the test verdict on CCc1c2c(nc3ccc(OC(=O)N4CCC(N5CCCCC5)CC4)cc13)-c1cc3c(c(=O)n1C2)COC(=O)[C@]3(O)CC ?
[A] inactive

[Q] What was the test verdict on Nc1ccc(/C=N/Nc2ccnc3c(O)cccc23)c2cccnc12 ?
[A] active

[Q] What was the test verdict on COc1ccc(-c2nn(-c3cccc(Cl)c3)cc2-c2cc(-c3ccccc3)nc(N)n2)cc1 ?
[A] inactive

[Q] What was the test verdict on CC(=O)OC1C=CC(OC(C)=O)O1 (stereo not given) ?
[A] inactive

[Q] What was the test verdict on COc1cc(-c2nc3ccccc3o2)cc(CN2CCCCC2)c1O ?
[A] inactive

[Q] What was the test verdict on NC1=CC(=O)C(=O)c2cccnc21 ?
[A] inactive

[Q] What was the test verdict on COc1cc(C2CC(c3ccccc3)=NN2C(C)=O)cc(OC)c1OC (stereo not given) ?
[A] inactive

[Q] What was the test verdict on CCC(c1ccc(OC)cc1)C(CC)c1ccc(O)c(CN2CCN(C)CC2)c1 (stereo not given) ?
[A] inactive

[Q] What was the test verdict on CC(C)(C)OC(=O)N1CCc2c(sc3ncnc(N/N=C/c4ccc(Br)cc4)c23)C1 ?
[A] inactive

[Q] What was the test verdict on CN1CCN(C2=Nc3ccccc3Oc3ccc(Cl)cc32)CC1 ?
[A] inactive
